These entries and their values trace back to the NIST ThermoML archive (doi:10.1016/j.fluid.2007.09.028).

Settings: 308.15 K; 101 kPa; Liquid
property_name: mass density (kg/m3)
One number for each entry, in kg/m3.

## Task Which measured mass density value corresponds to CC(C)(C)O ?
## Result 770.193

Each of the following entries comes with a recorded value; kindly state mass density for each.
1. CCC(C)O (stereo unspecified)
2. Clc1ccccc1
3. CCCCO

## Result
[794.03, 1090.23, 798.053]

Each of the following entries comes with a recorded value; kindly state mass density for each.
1. CCCO
2. CCCCCO

## Result
1. 791.576
2. 803.558

###

Answer each item with its documented mass density.
Test: xn = mol fraction of the nth substance listed
Settings: 313.15 K; 101 kPa; Liquid; x2 = 0.5
One number for each entry, in kg/m3.

Before answering, review these 3 worked examples.
## Task Which measured mass density value corresponds to Clc1ccccc1 [chlorobenzene] + CCCCO ?
## Result 947.561

## Task Which measured mass density value corresponds to Clc1ccccc1 [chlorobenzene] + CCC(C)O ?
## Result 942.399

## Task Which measured mass density value corresponds to Clc1ccccc1 [chlorobenzene] + CC(C)(C)O ?
## Result 927.755

Consider now this further molecule.
## Task Which measured mass density value corresponds to Clc1ccccc1 [chlorobenzene] + CCCCCO ?
## Result 938.086

###

Answer each item with its documented mass density.
Conditions: 288.15 K; 101 kPa; Liquid
Numbers only, in kg/m3.

Before answering, review these 4 worked examples.
## Task Which measured mass density value corresponds to CCCCO [butan-1-ol] ?
## Result 813.373

## Task Which measured mass density value corresponds to CCC(C)O (stereo not given) [butan-2-ol] ?
## Result 810.689

## Task Which measured mass density value corresponds to Clc1ccccc1 [chlorobenzene] ?
## Result 1111.81

## Task Which measured mass density value corresponds to CCCO [propan-1-ol] ?
## Result 807.69

Consider now this further compound.
## Task Which measured mass density value corresponds to CCCCCO [pentan-1-ol] ?
## Result 818.282

###

Assay: xn = mol fraction of the nth substance listed
Details: 308.15 K; 101 kPa; Liquid; x2 = 0.5
Answer each item with its documented mass density.
Answers are plain numbers, in kg/m3.

Before answering, review these 3 worked examples.
## Task Which measured mass density value corresponds to Clc1ccccc1 [chlorobenzene] + CCC(C)O ?
## Result 947.675

## Task Which measured mass density value corresponds to Clc1ccccc1 [chlorobenzene] + CCCCCO ?
## Result 942.839

## Task Which measured mass density value corresponds to Clc1ccccc1 [chlorobenzene] + CC(C)(C)O ?
## Result 933.303

Next:
## Task Which measured mass density value corresponds to Clc1ccccc1 [chlorobenzene] + CCCCO ?
## Result 952.506

###

Answer each item with its documented mass density.
Conditions: 303.15 K; 101 kPa; Liquid
One number for each entry, in kg/m3.

Before answering, review these 5 worked examples.
## Task Which measured mass density value corresponds to CC(C)(C)O ?
## Result 775.412

## Task Which measured mass density value corresponds to CCCCCO ?
## Result 807.278

## Task Which measured mass density value corresponds to CCCCO ?
## Result 801.923

## Task Which measured mass density value corresponds to CCC(C)O (stereo unspecified) ?
## Result 798.326

## Task Which measured mass density value corresponds to CCCO ?
## Result 795.65

Consider now this further molecule.
## Task Which measured mass density value corresponds to Clc1ccccc1 ?
## Result 1095.64

###

Answer each item with its documented mass density.
Conditions: 293.15 K; 101 kPa; Liquid
Answers are plain numbers, in kg/m3.

Before answering, review these 3 worked examples.
## Task Which measured mass density value corresponds to CCCCCO [pentan-1-ol] ?
## Result 814.635

## Task Which measured mass density value corresponds to Clc1ccccc1 [chlorobenzene] ?
## Result 1106.43

## Task Which measured mass density value corresponds to CCCCO [butan-1-ol] ?
## Result 809.573

Each of the following entries comes with a recorded value; kindly state mass density for each.
1. CCCO [propan-1-ol]
2. CCC(C)O (stereo not given) [butan-2-ol]

## Result
[803.703, 806.646]

###

Answer each item with its documented mass density.
Assay: xn = mol fraction of the nth substance listed
Settings: 303.15 K; 101 kPa; Liquid; x2 = 0.5
Give bare numbers, in kg/m3.

## Task Which measured mass density value corresponds to Clc1ccccc1 [chlorobenzene] + CCCCO ?
## Result 957.429

## Task Which measured mass density value corresponds to Clc1ccccc1 [chlorobenzene] + CCC(C)O ?
## Result 952.917

## Task Which measured mass density value corresponds to Clc1ccccc1 [chlorobenzene] + CC(C)(C)O ?
## Result 938.79

Consider now this further compound.
## Task Which measured mass density value corresponds to Clc1ccccc1 [chlorobenzene] + CCCCCO ?
## Result 947.565

###

Answer each item with its documented mass density.
Details: 298.15 K; 101 kPa; Liquid
One number for each entry, in kg/m3.

Before answering, review these 4 worked examples.
## Task Which measured mass density value corresponds to CCCO [propan-1-ol] ?
## Result 799.692

## Task Which measured mass density value corresponds to Clc1ccccc1 [chlorobenzene] ?
## Result 1101.04

## Task Which measured mass density value corresponds to CCCCCO [pentan-1-ol] ?
## Result 810.968

## Task Which measured mass density value corresponds to CCC(C)O (stereo not given) [butan-2-ol] ?
## Result 802.528

Consider now this further compound.
## Task Which measured mass density value corresponds to CCCCO [butan-1-ol] ?
## Result 805.762
